# Tested on: Proteus vulgaris
# assay.name: MIC against Gram-negative bacteria: Proteus vulgaris
# Format: cell-based
# measurement.setup: P. vulgaris; 10 h cultivation at 37° C.; 5×10^5 CFU/mL
measured.quantity: MIC (μg/mL) P. vulgaris (µg/mL)
// return numeric value only (unit: µg/mL, not printed)

substance	assay.system	measured.quantity	data.value
PRT833 (CEANNGGCSHGCSHTSAGPLCTCPRGYELDTDQRTC; listed as Homo sapiens)	Proteus vulgaris	MIC (μg/mL) P. vulgaris	50
PRT179 (RVDRCSLQPCRNGGLCLDLGHALRCRCRAGFAGPRCE; listed as Homo sapiens)	Proteus vulgaris	MIC (μg/mL) P. vulgaris	12.5
PRT180 (DLDDCAGRACANGGTCVEGGGAHRCSCALGFGGRDCR; listed as Homo sapiens)	Proteus vulgaris	MIC (μg/mL) P. vulgaris	25
PRT182 (QQPICLSGCHEQNGYCSKPAECLCRPGWQGRLCN; listed as Homo sapiens)	Proteus vulgaris	MIC (μg/mL) P. vulgaris	12.5

Look up and report measured MIC (μg/mL) P. vulgaris for this entry: PRT801 (FGYGCQQLCECMNNSTCDHVTGTCYCSPGFKGIRCD; listed as Homo sapiens) 12.5

Specify reported MIC (μg/mL) P. vulgaris for the substance shown: PRT798 (FGQDCAQLCSCANNGTCSPIDGSCQCFPGWIGKDCS; listed as Homo sapiens) 50

* * *

# Tested on: E. coli BL21
# assay.name: MIC against Gram-negative bacteria: E. coli BL21
# Format: cell-based
# measurement.setup: 10 h cultivation at 37° C., 5×10^5 CFU/mL, two-fold serial dilution
measured.quantity: MIC E. coli BL21 (µg/mL)
Unit µg/mL implied. Number only.

substance	assay.system	unit.name	MIC E. coli BL21
PRT1085 (HARKCNETAKSYCVNGGVCYYIEGINQLSCKCPNGFFGQRCL; listed as Homo sapiens)	E. coli BL21	µg/mL	12.5
PRT1076 (SCLTCVGHCSNGGSCTMNSKMMPECQCPPHMTGPRCE; listed as Homo sapiens)	E. coli BL21	µg/mL	25

Identify measured MIC E. coli BL21 associated with PRT1134 (NVDDCLMRPCANGATCLDGINRFSCLCPEGFAGRFCT; listed as Homo sapiens) 25

Provide one value: measured MIC E. coli BL21 of PRT1071 (ELDQCWEHCRNGGTCAASPSGMPTCRCPTGFTGPKCT; listed as Homo sapiens) 25

Return value of MIC E. coli BL21 for input PRT1061 (KRDPCLRKYKDFCIHGECKYVKELRAPSCICHPGYHGERCH; listed as Homo sapiens) , no commentary. 12.5

Look up and state reported MIC E. coli BL21 for PRT1148 (NINECSSSPCLHGADCEDHINGYVCKCQPGWSGHHCE; listed as Homo sapiens) 25

Please give the documented MIC E. coli BL21 of PRT1185 (REFQCDAYTCSNGGTCYDSGDTFRCACPPGWKGSTCA; listed as Homo sapiens) 12.5

Report MIC E. coli BL21 for PRT1089 (ANPCCSHPCQNRGVCMSVGFDQYKCDCTRTGFYGENCS; listed as Homo sapiens) 25

Quick one: give measured MIC E. coli BL21 for PRT1093 (RKDWCESQPCQSRGRCINLWLSYQCDCHRPYEGPNCL; listed as Homo sapiens) 50

Specify MIC E. coli BL21 for PRT1048 (YGKRCVPCKCANHSFCHPSNGTCYCLAGWTGPDCS; listed as Homo sapiens) and stop. 25

Let me know recorded MIC E. coli BL21 for PRT1184 (NPNDCLPDPCHSRGRCYDLVNDFYCACDDGWKGKTCH; listed as Homo sapiens) , thanks. 25

Look up and state reported MIC E. coli BL21 for PRT1174 (DLNYCGTHQPCLNGGTCSNTGPDKYQCSCPEGYSGPNCE; listed as Homo sapiens) 50

# return recorded MIC E. coli BL21 for entry PRT1102 (TIGSCGKNSCQHGGICHQDPIYPVCICPAGYAGRFCE; listed as Homo sapiens) 12.5

Give me measured MIC E. coli BL21, please, for this substance: PRT1075 (EVNKCSRCLEGACVVNKQSGDVTCNCTDGRVAPSCL; listed as Homo sapiens) 12.5

Using known records, supply MIC E. coli BL21 for PRT1053 (QLVSCPRNVSECSHDCVLTSEGPLCFCPEGSVLERDGKTCS; listed as Homo sapiens) 12.5

Supply reported MIC E. coli BL21 belonging to this substance: PRT1101 (MKDPCFSNPCQGSATCVNTPGERSFLCKCPPGYSGTICE; listed as Homo sapiens) 50

Hello, please tell me recorded MIC E. coli BL21 for this one: PRT1137 (ESNECKMNPCKNNSTCTDLYKSYRCECTSGWTGQNCS; listed as Homo sapiens) 50

Read off the recorded MIC E. coli BL21 for PRT1077 (RSHACENDQYGKPGGCSDICLLANSHKARTCRCRSGFSLGSDGKSCK; listed as Homo sapiens) 12.5

Retrieve MIC E. coli BL21 measured for PRT1170 (RNSSCLPNPCHNGGTCVVNGESFTCVCKEGWEGPICA; listed as Homo sapiens) and print it. 12.5

* * *

# Test system: E. coli DH5α
# assay.name: Antibacterial activity: MIC and growth curve against E. coli DH5α in 96-well plate
# Format: cell-based
# measurement.setup: minimal inhibitory concentration against E. coli DH5α; 96-well plate, 5×10^5 CFU/mL, 37° C., judged after 8 h
measured.quantity: MIC
State the value with its unit after it.

substance	measured.quantity	data.value
PRT1162 (DIDDCILNACEHNSTCKDLHLSYQCVCLSDWEGNFCE; listed as Homo sapiens)	MIC	12.5 µg/mL
PRT1386 (GSRACPRDCRGRGRCENGVCVCNAGYSGEDC; listed as Homo sapiens)	MIC	25 µg/mL
PRT838 (GLQECSAYCGSHGTCASPLGPCRCEPGFLGRACD; listed as Homo sapiens)	MIC	50 µg/mL
PRT740 (GLNDCMHNNGQCGQLCLAIPGGHRCGCASHYTLDPSSRNCS; listed as Homo sapiens)	MIC	12.5 µg/mL

Would you please give the reported MIC of PRT949 (FVDVCPQMPCLNGGTCAVASNMPDGFICRCPPGFSGARCQ; listed as Homo sapiens) with E. coli DH5α? 12.5 µg/mL

Enter MIC (test system E. coli DH5α) for PRT1157 (DVSEFSLVPCQNGTDCIKISNDVMCICSPIFTDLLCK; listed as Homo sapiens) 12.5 µg/mL

Fetch value of MIC on E. coli DH5α for PRT615 (CDCHALGSTNGQCDIRTGQCECQPGITGQHCERCEVNHFGFGPEGCKP; listed as Homo sapiens) . 12.5 µg/mL

Report its MIC with E. coli DH5α as the test system: PRT958 (DVDECSIGANPCEHLGRCVNTQGSFLCQCGRGYTGPRCE; listed as Homo sapiens) 50 µg/mL

* * *

This listing pairs substances with measured MIC C. diversus.
# Test system: Citrobacter diversus
# assay.name: MIC against Gram-negative bacteria: Citrobacter diversus
# Format: cell-based
# measurement.setup: 10 h cultivation at 37° C., 5×10^5 CFU/mL, two-fold serial dilution
# Method: 1. Gram-negative bacteria, such as E. coli BL21, Pseudomonas aeruginosa, Klebsiella pneumonia, Enterobacter cloacae, Aeromonas hydrophila, Citrobacter diversus, Moraxella catarrhalis, Proteus mirabilis, Proteus vulgaris, Serratia marcescens, etc were streaked on solid LB medium and cultured respectively. Then, typical clones were picked, inoculated into common liquid LB medium respectively, and cultured at 37° C. with shaking at 185 rpm until the McFarland specific turbidity was 0.5. […]
Reply numerically in µg/mL, unit not repeated.

substance	MIC C. diversus (µg/mL)
PRT1086 (HFKPCRDKDLAYCLNDGECFVIETLTGSHKHCRCKEGYQGVRCD; listed as Homo sapiens)	50

Identify measured MIC C. diversus associated with PRT1101 (MKDPCFSNPCQGSATCVNTPGERSFLCKCPPGYSGTICE; listed as Homo sapiens) 12.5

* * *

# Test system: Proteus mirabilis
# assay.name: MIC against Gram-negative bacteria: Proteus mirabilis
# Assay type: cell-based
# measurement.setup: 96-well plate, 5×10^5 CFU/mL, 37° C., 10 h
MIC P. mirabilis by entry:

substance	measured.quantity	data.value
PRT617 (CNCNSKGSLSARCDNSGRCSCKPGVTGARCDRCLPGFHMLTDAGCTQ; listed as Homo sapiens)	MIC P. mirabilis	25 µg/mL
PRT699 (DVDECSSGAPPCGPHGHCTNTEGSFRCSCAPGYRAPSGRPGPCA; listed as Homo sapiens)	MIC P. mirabilis	12.5 µg/mL
PRT691 (DINECDEAEAASPLCVNARCLNTDGSFRCICRPGFAPTHQPHHCA; listed as Homo sapiens)	MIC P. mirabilis	25 µg/mL
PRT640 (DMDECQDPSSCIDGQCVNTEGSYNCFCTHPMVLDASE; listed as Homo sapiens)	MIC P. mirabilis	50 µg/mL
PRT726 (LPPPCRCMHGGNCYFDETDLPKCKCPSGYTGKYCE; listed as Homo sapiens)	MIC P. mirabilis	12.5 µg/mL
PRT719 (CNNPCEQFNGGCSHICAPGPNGAECQCPHEGNWYLANNRKHCI; listed as Homo sapiens)	MIC P. mirabilis	50 µg/mL
PRT652 (DLDECAFPGVCPSGVCTNTAGSFSCKDCDGGYRPSPLGDSCE; listed as Homo sapiens)	MIC P. mirabilis	12.5 µg/mL

# return recorded MIC P. mirabilis for entry PRT672 (DIDECMLFGSEICKEGKCVNTQPGYECYCKQGFYYDGNLLECV; listed as Homo sapiens) 25 µg/mL

Entry source: patent US9833497B2
